system: Proliferating Cell Nuclear Antigen (PCNA), human (human)
Sequence (chain, as listed by the source): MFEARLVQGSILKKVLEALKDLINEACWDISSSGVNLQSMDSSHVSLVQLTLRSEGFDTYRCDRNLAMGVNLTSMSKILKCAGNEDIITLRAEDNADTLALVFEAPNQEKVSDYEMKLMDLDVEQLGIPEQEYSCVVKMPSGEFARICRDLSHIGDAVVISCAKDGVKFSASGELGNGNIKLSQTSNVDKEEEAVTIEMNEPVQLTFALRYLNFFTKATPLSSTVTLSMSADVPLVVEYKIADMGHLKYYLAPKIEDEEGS
protocol-summary: NMR titration; 280 µM U-2H,15N-PCNA titrated with a 7.5 mM stock of ING1^22 up to a 7.8-fold molar excess; CSP of H44 fitted to one set of sites; PBS pH 7.0, 35°C
condition-summary: both partners purified
No end group written: not given here.
measure: Kd (mM)
Reply numerically in mM, unit not repeated.

According to the records, this binder PANGEQLHLVNYVEDTLDSIES (not fully specified) [ING1 PIP-box fragment 4-25 (ING1^22)] displays Kd of 2
